assay: oral bioavailability in rats, radioimmunoassay (RIA) detection; conditions: female, CD, rat, in vivo, oral, 10 mg/kg, over 6 hours
Bridge positions count the residues as written; N and C are the ends. Peptide text beside a SMILES is read from it.

>  <compound>
C[C@@H]1NC(=O)[C@@H]2CCCN2C(=O)[C@H](CC(N)=O)NC(=O)[C@@H]2CSSC[C@H](N)C(=O)N[C@H]3CSSC[C@H](NC1=O)C(=O)N[C@@H]([C@@H](C)O)C(=O)NCC(=O)N[C@H](C(=O)N[C@@H](Cc1ccc(O)cc1)C(=O)O)CSSC[C@H](NC(=O)[C@H](Cc1ccc(O)cc1)NC(=O)[C@H](CCC(=O)O)NC3=O)C(=O)N2 [SEQ ID NO:3] (H-CCEYCCNPACTGCY-OH; disulfide 1-6, 2-10, 5-13; N-terminus and C-terminus assumed)

>  <bioavailability [%]>
0.2

$$$$

* * *

assay: oral bioavailability in mice, radioimmunoassay (RIA) detection; parameters: species or system CD-1 mice; details: female, CD-1, mouse, in vivo, 8 mg/kg intravenous, read-out: AUCi.v.,(0-4h) (converted)
Bridge positions count the residues as written; N and C are the ends. Peptide text beside a SMILES is read from it.

>  <compound>
C[C@@H]1NC(=O)[C@@H]2CCCN2C(=O)[C@H](CC(N)=O)NC(=O)[C@@H]2CSSC[C@H](N)C(=O)N[C@H]3CSSC[C@H](NC1=O)C(=O)N[C@@H]([C@@H](C)O)C(=O)NCC(=O)N[C@H](C(=O)N[C@@H](Cc1ccc(O)cc1)C(=O)O)CSSC[C@H](NC(=O)[C@H](Cc1ccc(O)cc1)NC(=O)[C@H](CCC(=O)O)NC3=O)C(=O)N2 [SEQ ID NO:3] (H-CCEYCCNPACTGCY-OH; disulfide 1-6, 2-10, 5-13; N-terminus and C-terminus assumed)

>  <AUC [ng·h/mL]>
27700

$$$$
